Kindly state CC50 for each of the entries shown.
Assay: Cytotoxicity against human RD cells assessed as reduction in cell viability incubated for 2 to 3 days by MTS assay
Format: cell-based
Numbers only, in µM.

Here are 4 compounds together with their reported answers.
CC(=O)Nc1nc(C)c(-c2csc(NC(=O)/C=C/C(C)C)n2)s1; 172
CC(=O)Nc1nc(C)c(-c2csc(NCCO)n2)s1; 333
Cc1nc(NC(=O)C(C)(C)C)sc1-c1csc(NCCCC(=O)O)n1; 261
Cc1nc(NC(=O)C(C)(C)C)sc1-c1csc(N(CCO)C2CCCCC2)n1; 4.46

For each listed entry, give its CC50.
1. Cc1nc(NC(=O)C(C)(C)C)sc1-c1csc(Nc2cccc(C(=O)O)c2)n1
2. CC(=O)Nc1nc(C)c(-c2csc(N(C)C3CCCCC3)n2)s1
3. Cc1nc(NC(=O)C(C)(C)C)sc1-c1csc(NCCO)n1
4. CC(=O)c1cccc(N(CCO)c2nc(-c3sc(NC(=O)C(C)(C)C)nc3C)cs2)c1
5. CC(=O)Nc1nc(C)c(-c2csc(N(CCO)C3CCCCC3)n2)s1
6. C=CC(=O)Nc1nc(-c2sc(NC(C)=O)nc2C)cs1
7. CC(=O)Nc1nc(C)c(-c2csc(NC3CCC(C)CC3)n2)s1 (stereo not given)
8. CC(=O)Nc1nc(C)c(-c2csc(NC3CCCCC3)n2)s1

1. 32.1
2. 19.4
3. 361
4. 28.9
5. 16.4
6. 6.01
7. 10.9
8. 25.5

---

Test: Selectivity index, ratio of CC50 for human RD cells to EC50 for Enterovirus A71 infected in human RD cells
Assay type: toxicity, cell-based
Conditions: read-out: Ratio CC50/EC50
Measured attribute: selectivity ratio

selectivity ratio measured on CC(=O)c1cccc(N(CCO)c2nc(-c3sc(NC(=O)C(C)(C)C)nc3C)cs2)c1 = > 67.2

---

Assay: Cytotoxicity against human RD cells infected with Human rhinovirus A2 assessed as reduction in cell viability incubated for 2 to 3 days by MTS assay
Type: cell-based
Measured attribute: CC50 (µM)
One number for each entry, in µM.

CC(=O)c1cccc(N(CCO)c2nc(-c3sc(NC(=O)C(C)(C)C)nc3C)cs2)c1; 16.8
Cc1nc(NC(=O)C(C)(C)C)sc1-c1csc(NCCO)n1; 41.2

--- query ---
CC50 measured on Cc1nc(NC(=O)C(C)(C)C)sc1-c1csc(Nc2cccc(C(=O)O)c2)n1 = 36.3

---

Assay: Cytotoxicity against human RD cells infected with Human coxsackievirus B3 assessed as reduction in cell viability incubated for 2 to 3 days by MTS assay
Assay type: cell-based
Measured attribute: CC50 (µM)
Give bare numbers, in µM.

CC(=O)Nc1nc(C)c(-c2csc(N(CCO)C3CCCCC3)n2)s1; 20.8

--- query ---
CC50 measured on Cc1nc(NC(=O)C(C)(C)C)sc1-c1csc(Nc2cccc(C(=O)O)c2)n1 = 111

---

Test system: Cystic fibrosis transmembrane conductance regulator (Homo sapiens), P13569 [F508del]
Sequence (P13569 as listed by the source): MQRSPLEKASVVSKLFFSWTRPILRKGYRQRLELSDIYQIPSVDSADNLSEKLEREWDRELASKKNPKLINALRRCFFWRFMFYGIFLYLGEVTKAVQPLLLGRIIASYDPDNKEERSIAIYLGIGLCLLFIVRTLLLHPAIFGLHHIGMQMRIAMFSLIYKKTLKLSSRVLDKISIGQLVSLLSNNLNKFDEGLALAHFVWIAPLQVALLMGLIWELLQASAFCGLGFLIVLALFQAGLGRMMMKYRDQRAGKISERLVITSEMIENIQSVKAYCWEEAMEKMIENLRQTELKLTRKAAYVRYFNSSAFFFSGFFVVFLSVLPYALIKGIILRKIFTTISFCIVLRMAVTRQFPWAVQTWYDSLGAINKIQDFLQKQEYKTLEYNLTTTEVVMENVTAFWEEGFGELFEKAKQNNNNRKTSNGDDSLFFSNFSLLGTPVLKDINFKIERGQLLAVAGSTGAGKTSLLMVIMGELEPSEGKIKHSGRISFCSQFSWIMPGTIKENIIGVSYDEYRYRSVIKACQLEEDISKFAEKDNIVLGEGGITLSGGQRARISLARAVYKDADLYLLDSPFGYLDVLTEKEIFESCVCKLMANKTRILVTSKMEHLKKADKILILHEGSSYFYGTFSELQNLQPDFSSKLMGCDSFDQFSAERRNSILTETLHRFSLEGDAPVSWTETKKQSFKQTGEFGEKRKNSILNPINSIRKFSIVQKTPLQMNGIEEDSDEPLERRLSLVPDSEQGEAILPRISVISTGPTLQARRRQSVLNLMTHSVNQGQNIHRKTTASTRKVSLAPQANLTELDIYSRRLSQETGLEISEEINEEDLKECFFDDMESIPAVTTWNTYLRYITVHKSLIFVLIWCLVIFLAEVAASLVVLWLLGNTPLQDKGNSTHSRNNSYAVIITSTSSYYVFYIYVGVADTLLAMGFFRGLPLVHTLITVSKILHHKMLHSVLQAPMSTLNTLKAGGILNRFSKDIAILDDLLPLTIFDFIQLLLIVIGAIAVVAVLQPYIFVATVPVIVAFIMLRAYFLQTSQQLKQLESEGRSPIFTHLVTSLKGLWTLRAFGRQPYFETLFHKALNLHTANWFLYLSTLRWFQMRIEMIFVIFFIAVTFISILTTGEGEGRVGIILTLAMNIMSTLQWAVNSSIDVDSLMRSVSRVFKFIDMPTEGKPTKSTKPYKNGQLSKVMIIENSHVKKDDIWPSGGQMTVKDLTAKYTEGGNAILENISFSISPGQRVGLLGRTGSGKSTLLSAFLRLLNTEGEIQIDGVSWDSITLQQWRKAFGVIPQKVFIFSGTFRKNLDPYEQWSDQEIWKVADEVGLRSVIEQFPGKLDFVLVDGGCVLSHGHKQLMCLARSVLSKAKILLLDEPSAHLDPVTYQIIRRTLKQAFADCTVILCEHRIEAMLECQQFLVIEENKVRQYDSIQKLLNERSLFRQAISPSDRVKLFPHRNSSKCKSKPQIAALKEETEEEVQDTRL
Assay: Corrector activity at CFTR F508del mutant (unknown origin) transfected in human HEK293 membrane cells assessed as increase in anion permeability at 3 uM incubated for 24 hrs by using YFP probe based fluorescence inverted microscopic analysis
Type: cell-based
Active and inactive are the calls of the source. No cut-off for these calls is given here.
Outcomes you can answer with include only these: active, inactive

CC(=O)c1cccc(N(CCO)c2nc(-c3sc(NC(=O)C(C)(C)C)nc3C)cs2)c1; active

Hi team, can someone confirm the assay call for Cc1nc(NC(=O)C(C)(C)C)sc1-c1csc(N(CCO)C2CCCCC2)n1 ?
active

Hi team, can someone confirm the assay call for Cc1nc(NC(=O)C(C)(C)C)sc1-c1csc(NCCO)n1 ?
inactive

Hi team, can someone confirm the assay call for Cc1nc(NC(=O)C(C)(C)C)sc1-c1csc(Nc2cccc(C(=O)O)c2)n1 ?
active

---

Experiment: Stability in human plasma assessed as half life measured upto 24 hrs by UV/LC-MS analysis
Type: ADME, cell-free
Measured attribute: half-life (days)
One number for each entry, in days.

CC(=O)c1cccc(N(CCO)c2nc(-c3sc(NC(=O)C(C)(C)C)nc3C)cs2)c1; 24.2

--- query ---
half-life measured on COc1ccc(Cl)cc1Nc1nc(-c2sc(NC(=O)c3ccccc3)nc2C)cs1 = 3.61

---

Assay: Cytotoxicity against human RD cells infected with Human rhinovirus B14 assessed as reduction in cell viability incubated for 2 to 3 days by MTS assay
Assay type: cell-based
Measured attribute: CC50 (µM)
One number for each entry, in µM.

Cc1nc(NC(=O)C(C)(C)C)sc1-c1csc(NCCO)n1; 41.2
CC(=O)c1cccc(N(CCO)c2nc(-c3sc(NC(=O)C(C)(C)C)nc3C)cs2)c1; 16.8
CC(=O)Nc1nc(C)c(-c2csc(N(CCO)C3CCCCC3)n2)s1; 4.51

--- query ---
CC50 measured on Cc1nc(NC(=O)C(C)(C)C)sc1-c1csc(Nc2cccc(C(=O)O)c2)n1 = 36.3

---

Assay: Apparent permeability of compound by PAMPA assay
Type: ADME
Measured attribute: Papp
Mention the unit after the number when you answer.

Papp measured on COc1ccc(Cl)cc1Nc1nc(-c2sc(NC(=O)c3ccccc3)nc2C)cs1 = 8.1 ×10⁻⁶ cm/s

---

Assay: Aqueous solubility of compound by LC-MS analysis
Type: physicochemical
Settings: buffer; read-out: solubility
Measured attribute: solubility (µM)
Give bare numbers, in µM.

solubility measured on CC(=O)c1cccc(N(CCO)c2nc(-c3sc(NC(=O)C(C)(C)C)nc3C)cs2)c1 = 0.1

---

Kindly state EC50 for each of the entries shown.
Tested on: Enterovirus A71
Assay: Antiviral activity against Enterovirus A71 infected in human RD cells assessed as reduction in cytopathic effect incubated for 2 to 3 days by MTS assay
Type: functional, organism-based
Conditions: Enterovirus A, RD; read-out: EC50
Answers are plain numbers, in µM.

For each listed entry, give its EC50.
1. Cc1nc(NC(=O)OC(C)(C)C)sc1-c1csc(NCCO)n1
2. CC(=O)Nc1nc(C)c(-c2csc(NC(=O)/C=C/C(C)C)n2)s1
3. CC(=O)Nc1nc(C)c(-c2csc(NC3CCC(C)CC3)n2)s1 (stereo unspecified)
4. Cc1nc(NC(=O)C(C)(C)C)sc1-c1csc(NCCCC(=O)O)n1
5. Cc1nc(NC(=O)C(C)(C)C)sc1-c1csc(NCCO)n1

11.4
107
0.34
7.27
1.83

For each listed entry, give its EC50.
1. CC(=O)Nc1nc(C)c(-c2csc(N(C)C3CCCCC3)n2)s1
2. Cc1nc(NC(=O)C(C)(C)C)sc1-c1csc(NCC(=O)O)n1
3. CC(=O)Nc1nc(C)c(-c2csc(NC3CCCCC3)n2)s1
4. CC(=O)Nc1nc(C)c(-c2csc(N(CCO)C3CCCCC3)n2)s1
5. Cc1nc(NC(=O)C(C)(C)C)sc1-c1csc(Nc2cccc(C(=O)O)c2)n1
6. CC(=O)Nc1nc(C)c(-c2csc(NCCO)n2)s1
7. Cc1nc(NC(=O)C(C)(C)C)sc1-c1csc(NCCC(=O)O)n1
8. Cc1nc(NC(=O)C(C)(C)C)sc1-c1csc(N(CCO)C2CCCCC2)n1

1. 0.88
2. 5.31
3. 1.1
4. 1.1
5. 0.42
6. 12.6
7. 6.48
8. 4.96

EC50 measured on C=CC(=O)Nc1nc(-c2sc(NC(C)=O)nc2C)cs1 = 1.89

---

Assay: Cytotoxicity against human RD cells assessed as reduction in cell viability incubated for 2 to 3 days by MTS assay
Type: cell-based
Measured attribute: CC50

Cc1nc(NC(=O)C(C)(C)C)sc1-c1csc(NCCC(=O)O)n1; > 271 µM
Cc1nc(NC(=O)C(C)(C)C)sc1-c1csc(NCC(=O)O)n1; > 282 µM

--- query ---
CC50 measured on Cc1nc(NC(=O)OC(C)(C)C)sc1-c1csc(NCCO)n1 = > 421 µM

Hey, just so you know, these numbers are from ChEMBL document CHEMBL4321853.
